Below, each of the compounds is paired with its reported cell viability value.
- Tested on: Caco-2
- assay_summary: cell viability relative to DMSO; higher = less toxic
- settings: 72 h; 10000 nM
Quick reminder: number only, in %, skip the unit.

Here is how some compounds turned out for cell viability.
Exercise: Sample COc1cc2nc(N3CCN(C(=O)COc4c(OC)cccc4C(C)C)CC3)nc(N)c2cc1OC — what was its cell viability?
Key: 84.4

Exercise: Moving on to the next compound: Cc1cc2c(N3CCCC3)nc(N3CCCC3)nc2n1C
Key: 71.8

Exercise: Moving on to the next compound: C#CCN[C@@H]1CCc2ccccc21
Key: 94.2

Exercise: Moving on to the next compound: CCN(CC)Cc1ccc(C(=O)N(CCc2ccccc2OC)[C@@H]2CCNC2)cc1
Key: 98.2

Exercise: Moving on to the next compound: CNC(=O)c1cc(Oc2ccc(NC(=O)Nc3ccc(Cl)c(C(F)(F)F)c3)c(F)c2)ccn1
Key: 66.3

Exercise: Moving on to the next compound: CCCN(CCC)CCc1ccc(OC)c(OCCc2ccccc2)c1
Key: 91.3

Exercise: Moving on to the next compound: COc1ccc2cc([C@H](C)C(=O)O)ccc2c1
Key: 95.3

Exercise: Moving on to the next compound: CC(C)(C)c1cc(C=C(C#N)C#N)cc(Br)c1O
Key: 77.4

Exercise: Moving on to the next compound: CCC[C@H](N[C@@H](C)C(=O)N1[C@H](C(=O)O)C[C@@H]2CCCC[C@@H]21)C(=O)OCC
Key: 99.5

***
Exercise: Sample Oc1cccc2cccnc12 — what was its cell viability?
Key: 88.7

====

- System: Caco-2
- assay_summary: relative viability EC50 (midpoint between 100% and the lowest measured viability); higher = less toxic
- settings: 72 h
Below, each of the compounds is paired with its reported relative viability EC50 value.

Exercise: Sample CCOc1cc2ncc(C#N)c(Nc3ccc(OCc4ccccn4)c(Cl)c3)c2cc1NC(=O)/C=C/CN(C)C — what was its relative viability EC50?
Key: 0.365 µM

Exercise: Moving on to the next compound: CCCN(CCC)CCc1ccc(OC)c(OCCc2ccccc2)c1
Key: > 10 µM

Exercise: Moving on to the next compound: Cc1c(-c2cnccn2)ssc1=S
Key: > 10 µM

Exercise: Moving on to the next compound: O=C(O)CCCNC(=O)c1cccnc1
Key: > 10 µM

Exercise: Moving on to the next compound: C[C@@H]1CN(Cc2ccc(F)cc2)[C@@H](C)CN1C(=O)c1cc2c(C(=O)C(=O)N(C)C)cn(C)c2cc1Cl
Key: > 10 µM

====

- Tested on: U2OS
- assay_summary: cell viability relative to DMSO; higher = less toxic
- settings: 72 h; 10000 nM
endpoint_label: cell viability (%)
Quick reminder: number only, in %, skip the unit.

Here is how some compounds turned out for cell viability.
Exercise: Fill in the recorded cell viability for this compound, with U2OS as test system: O=C(O)c1ccccc1O [salicylic-acid]
Key: 102

Exercise: Moving on to the next compound: NC[C@@H]1CC[C@@H](N)[C@@H](O[C@H]2[C@H](O)[C@@H](O[C@H]3O[C@H](CO)[C@@H](O)[C@H](N)[C@H]3O)[C@H](N)C[C@@H]2N)O1 [dibekacin]
Key: 104

Exercise: Moving on to the next compound: N#Cc1ccc(C2CCCc3cncn32)cc1 (stereo not drawn) [fadrozole]
Key: 97.4

Exercise: Moving on to the next compound: CCCCCCCCc1ccc(-c2ccc(C(=O)O)cc2)cc1
Key: 95

Exercise: Moving on to the next compound: N[C@@H]1CN(c2c(F)cc3c(=O)c(C(=O)O)cn([C@@H]4C[C@@H]4F)c3c2Cl)CC12CC2 [sitafloxacin]
Key: 96.8

Exercise: Moving on to the next compound: CC(C)N(C[C@H]1O[C@@H](n2cnc3c(N)ncnc32)[C@H](O)[C@@H]1O)[C@H]1C[C@@H](CCc2nc3cc(C(C)(C)C)ccc3[nH]2)C1 [EPZ-5676]
Key: 111

***
Exercise: Fill in the recorded cell viability for this compound, with U2OS as test system: COC(=O)[C@@H](N)CS [mecysteine]
Key: 95.3

Exercise: Moving on to the next compound: O=C(Nc1ccccc1Br)N[C@@H]1CCN(c2ccc(C(F)(F)F)cn2)C1
Key: 94.7

Exercise: Moving on to the next compound: COc1ccc2c(c1)C(C(=O)N(Cc1ccc(N(C)C)cc1)c1ccc(C(C)C)cc1)CCC2 (stereo not drawn)
Key: 100

Exercise: Moving on to the next compound: CN[C@H](CNC(=O)N1CCC[C@@H]([C@@H](OCCNC(=O)OC)c2cccc(Cl)c2)C1)C[C@H]1CCCOC1
Key: 99.1

Exercise: Moving on to the next compound: CC(C)CC(N)=O [isovaleramide]
Key: 96.7

Exercise: Moving on to the next compound: O=C(COP(=O)(O)O)[C@@H](O)[C@H](O)[C@H](O)COP(=O)(O)O [fosfructose]
Key: 99.3

Exercise: Moving on to the next compound: Cc1ccc(NC(=O)C(C)C)cc1C1CCN(Cc2ccc(Oc3ccc(F)c(F)c3)cc2)CC1
Key: 80.3

Exercise: Moving on to the next compound: Nc1c(CC(=O)O)cccc1C(=O)c1ccc(Br)cc1 [bromfenac]
Key: 96

Exercise: Moving on to the next compound: CCCN(CCC)CCc1ccc(OC)c(OCCc2ccccc2)c1 [NE-100]
Key: 97.9

Exercise: Moving on to the next compound: C#CCN[C@@H]1CCc2ccccc21 [rasagiline]
Key: 97.2

Exercise: Moving on to the next compound: CC(C)[C@H](N)C(=O)OCC(CO)OCn1cnc2c(=O)nc(N)[nH]c21 (mixture of isomers) [valganciclovir]
Key: 108

Exercise: Moving on to the next compound: CCN(CC)Cc1ccc(C(=O)N(CCc2ccccc2OC)[C@@H]2CCNC2)cc1
Key: 99.3
